Each recorded value in this set is attributed to paper PMC2410173.

Assay: Pharmacokinetics and metabolism in rat plasma after a single intravenous or oral dose (HPLC)
Type: in vivo
Conditions: female, Wistar, in vivo, iv, 10 mg/kg, t1/2α (distribution half-life)
measured-endpoint: half-life (min)
Please reply with the bare figure in min and do not write the unit itself.

half-life measured on COc1cc2c(cc1OS(N)(=O)=O)CCC1C2CC[C@]2(C)C(OS(N)(=O)=O)CCC12 (stereo partly shown) [2-MeOE2bisMATE, 2-methoxyoestradiol-bis-sulphamate] = 13.2

====

Assay: Pharmacokinetics and metabolism in rat plasma after a single intravenous or oral dose (HPLC)
Type: in vivo
Conditions: female, Wistar, in vivo, po, 10 mg/kg
measured-endpoint: Cmax (ng/mL)
Report the figure in ng/mL without appending any unit label.

// sample COc1cc2c(cc1OS(N)(=O)=O)CCC1C2CC[C@]2(C)C(OS(N)(=O)=O)CCC12 (stereo partly shown) [2-MeOE2bisMATE, 2-methoxyoestradiol-bis-sulphamate] , its Cmax was 3900
